Every entry's value here was drawn from ChEMBL document CHEMBL1130088.

The following compounds each carry a recorded pIC50 for cGMP-specific 3',5'-cyclic phosphodiesterase (Bos taurus).
One number for each entry, as −log10 of the molar value.

Worked set:
Cc1nc2c([nH]1)C(=O)N(C)C1=N[C@@H]3CCC[C@@H]3N12: 5.62
CN1C(=O)c2[nH]c(C(F)(F)F)nc2N2C1=N[C@@H]1CCC[C@@H]12 (racemic): 5.21
CN1C(=O)c2c(nc(CC3CCCCC3)n2Cc2ccccc2)N2C1=N[C@@H]1CCC[C@@H]12: 6.23
CN1C(=O)c2c(nc(Cc3ccccc3)n2Cc2ccccc2)N2C1=N[C@@H]1CCC[C@@H]12: 6.74
CCCCCCc1nc2c(n1Cc1ccccc1)C(=O)N(C)C1=N[C@@H]3CCC[C@@H]3N12: 6.10
CN1C(=O)c2[nH]c(Cc3ncc[nH]3)nc2N2C1=N[C@@H]1CCC[C@@H]12: 4.59
O=C(O)C1CCN(c2nc(NCc3ccc4c(c3)OCO4)c3cc(Cl)ccc3n2)CC1: 8.40
CCN1C(=O)c2[nH]c(Cc3ccccc3)nc2N2C1=N[C@@H]1CCC[C@@H]12: 7.72

Next compound, pIC50 to be filled in.
Reported pIC50 ( CCCc1nc2c([nH]1)N1C(=N[C@@H]3CCC[C@@H]31)N(C)C2=O ) = 6.10
